B1: GLTSCR2 (parent)
chain: LARRRRRRQARREAEADKPRRLGR

variants of: B1; assay: protein stability index of a GFP-peptide fusion (GPS, HEK-293T) (PSI 1-6); higher = more stable; conditions: c terminus: a fixed tail appended;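 also: lentivirally expressed fusions sorted by FACS into six bins by GFP to DsRed ratio, PSI derived from sequencing read proportions per bin multiplied by bin number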
Here the recorded protein stability index is given for each entry.
Give a plain numeric answer without units written out.

INSERT INTO measurements (mutationcode, quantitativeresult) VALUES
  ('R7A', 4.18),
  ('R5H', 4.18),
  ('R6M', 4.27),
  ('R3T', 4.84),
  ('R3K', 5.03),
  ('A2E', 4.71);

Q: Fill in the blank: the reported protein stability index of L22P is ____.
Result: 4.15

Q: Fill in the blank: the reported protein stability index of R24T is ____.
Result: 4.6

Q: Fill in the blank: the reported protein stability index of R6H is ____.
Result: 4.28

Q: Fill in the blank: the reported protein stability index of P19M is ____.
Result: 4.08

Q: Fill in the blank: the reported protein stability index of A14K is ____.
Result: 4.61

Q: Fill in the blank: the reported protein stability index of A16M is ____.
Result: 4.97

Q: Fill in the blank: the reported protein stability index of R4V is ____.
Result: 3.97

Q: Fill in the blank: the reported protein stability index of G23W is ____.
Result: 4.46

Q: Fill in the blank: the reported protein stability index of Q9K is ____.
Result: 4.33

Q: Fill in the blank: the reported protein stability index of G23Y is ____.
Result: 4.44

Q: Fill in the blank: the reported protein stability index of R11N is ____.
Result: 3.94

Q: Fill in the blank: the reported protein stability index of D17E is ____.
Result: 5.31

Q: Fill in the blank: the reported protein stability index of R24N is ____.
Result: 4.28

Q: Fill in the blank: the reported protein stability index of D17L is ____.
Result: 4.52

Q: Fill in the blank: the reported protein stability index of R5G is ____.
Result: 4.36

Q: Fill in the blank: the reported protein stability index of R4S is ____.
Result: 4.17
